# Tested on: Fibroblast
# assay name: Multiplex assay against human fibroblast
# Type: toxicity, cell-based
# condition info: 24 h, 1 µM, compound concentration 1 uM, replicate 1
Rule: measured Population Fragmented Nuclei (%) below 30% gets Condition met; anything equal to or greater than 30% gets Condition not met.

[[record]]
molecule = "CN1CCN(Cc2ccc(Nc3ncc(Cl)c(Nc4ccccc4S(=O)(=O)N(C)C)n3)cc2)CC1 [DUBERMATINIB]"
cat = "Condition met"

[[record]]
molecule = "CC1=C(C(=O)Nc2cc3cn[nH]c3cc2F)C(c2ccc(C(F)(F)F)cc2)CC(=O)N1 (stereo not drawn)"
cat = "Condition met"

[[record]]
molecule = "C=CC(=O)Nc1ccc2[nH]c(=O)n(C3CCN(Cc4ccc(-c5nc6cc[nH]c(=O)c6cc5-c5ccccc5)cc4)CC3)c2c1 [Borussertib]"
cat = "Condition met"

[[record]]
molecule = "Cc1ccc2c(c1)c1c(n2CCc2ccc(C)nc2)CCN(C)C1 [LATREPIRDINE]"
cat = "Condition met"

[[record]]
molecule = "CCc1ccc(OCc2ccccc2C(=O)Nc2ccc3nc(C)cc(N)c3c2)cc1.Cl"
cat = "Condition not met"

[[record]]
molecule = "Cl.O=C(O)c1cc(-c2ccc(C3CCNCC3)cc2)c2ccc(-c3ccc(C(F)(F)F)cc3)cc2c1"
cat = "Condition met"

[[record]]
molecule = "CCOC(=O)Nc1cc(-c2ccc(C)c(NS(C)(=O)=O)c2)nn2c(C)nnc12"
cat = "Condition not met"

[[record]]
molecule = "Cc1nc(N2CC[C@H](O)C2)ncc1-c1cc(C(F)(F)F)cc2[nH]ncc12"
cat = "Condition met"


* * *

# Test system: Fibroblast
# assay name: Multiplex assay against human fibroblast
# Assay type: toxicity, cell-based
# condition info: 48 h, 10 µM, compound concentration 10 uM, replicate 2
Rule: measured Population Membrane Permeable-Phenotype (%) below 20% gets met; anything equal to or greater than 20% gets not met.

[[record]]
molecule = "CCc1ccc(OCc2ccccc2C(=O)Nc2ccc3nc(C)cc(N)c3c2)cc1.Cl"
cat = "met"

[[record]]
molecule = "COc1ccccc1CN[C@H]1C2CCN(CC2)[C@H]1C(c1ccccc1)c1ccccc1"
cat = "not met"

[[record]]
molecule = "CC(C)Oc1ccccc1C(=O)Nc1ccccc1C(=O)Nc1cccc(S(=O)(=O)C(F)(F)F)c1"
cat = "not met"

[[record]]
molecule = "Cc1cccc(CN2CCN(C(c3ccccc3)c3ccc(Cl)cc3)CC2)c1.Cl.Cl (stereo not given)"
cat = "met"

[[record]]
molecule = "COC(=O)C1=C(C)NC(C)=C(C(=O)OCCCN2CCC(c3ccccc3)(c3ccccc3)CC2)[C@H]1c1cccc([N+](=O)[O-])c1"
cat = "not met"


* * *

# Tested on: U2OS
# assay name: Multiplex assay against U2OS
# Assay type: toxicity, cell-based
# condition info: human, 12 h, 1 µM, compound concentration 1 uM, replicate 1
measured attribute: Population Pyknosed Nuclei (%)

[[record]]
compound = "O=c1[nH]c2ccccc2n1C1CCN(Cc2ccc(-c3[nH]c4cc5ncnc5cc4nc3-c3ccccc3)cc2)CC1"
experimental_system = "U2OS"
readout_value = 5

[[record]]
compound = "Cc1nc(N2CC[C@H](O)C2)ncc1-c1cc(C(F)(F)F)cc2[nH]ncc12"
experimental_system = "U2OS"
readout_value = 4

[[record]]
compound = "CNC(=O)Nc1ccc(-c2nc(N3CC4CCC(C3)O4)c3cnn(C4CCC5(CC4)OCCO5)c3n2)cc1"
experimental_system = "U2OS"
readout_value = 15

[[record]]
compound = "COC(=O)C1=C(C)NC(C)=C(C(=O)OCCCN2CCC(c3ccccc3)(c3ccccc3)CC2)[C@H]1c1cccc([N+](=O)[O-])c1"
experimental_system = "U2OS"
readout_value = 23

[[record]]
compound = "CNC(=O)Nc1ccc2c(c1)[C@@]1(CC2)OC(=O)N(CC(=O)N(Cc2ccc(F)cc2)[C@@H](C)C(F)(F)F)C1=O"
experimental_system = "U2OS"
readout_value = 14

[[record]]
compound = "COc1cc(Nc2nccc(-c3cnn4nc(OC)ccc34)n2)cc(C(F)(F)F)c1"
experimental_system = "U2OS"
readout_value = 12

[[record]]
compound = "O=c1cc(N2CCOCC2)oc2c(-c3cccc4c3sc3ccccc34)cccc12"
experimental_system = "U2OS"
readout_value = 11

[[record]]
compound = "C=CC(=O)Nc1cccc(Oc2nc(Nc3ccc(N4CCN(C)CC4)cc3OC)ncc2Cl)c1"
experimental_system = "U2OS"
readout_value = 36

[[record]]
compound = "O=C(c1cc2c(cc1F)OC(c1ccc(F)cc1)(c1ccc(Cl)cc1Cl)O2)N1CCOCC1 (stereo not given)"
experimental_system = "U2OS"
readout_value = 13

[[record]]
compound = "CN1CCN(Cc2ccc(Nc3ncc(Cl)c(Nc4ccccc4S(=O)(=O)N(C)C)n3)cc2)CC1"
experimental_system = "U2OS"
readout_value = 27

[[record]]
compound = "CCc1ccc(OCc2ccccc2C(=O)Nc2ccc3nc(C)cc(N)c3c2)cc1.Cl"
experimental_system = "U2OS"
readout_value = 40

[[record]]
compound = "C=CC(=O)Nc1ccc2[nH]c(=O)n(C3CCN(Cc4ccc(-c5nc6cc[nH]c(=O)c6cc5-c5ccccc5)cc4)CC3)c2c1"
experimental_system = "U2OS"
readout_value = 2

[[record]]
compound = "CCCSc1nc(N[C@@H]2C[C@H]2c2ccc(F)c(F)c2)c2nnn([C@@H]3C[C@H](OCCO)[C@@H](O)[C@H]3O)c2n1"
experimental_system = "U2OS"
readout_value = 14

[[record]]
compound = "CC(C)(C)NC[C@H](O)COc1nsnc1N1CCOCC1"
experimental_system = "U2OS"
readout_value = 7

[[record]]
compound = "Cc1ccc2c(c1)c1c(n2CCc2ccc(C)nc2)CCN(C)C1 [LATREPIRDINE]"
experimental_system = "U2OS"
readout_value = 9

[[record]]
compound = "COc1ccc(-c2ccc3ncc4c(c3c2)n(-c2ccc(N3CCNCC3)c(C(F)(F)F)c2)c(=O)n4C)cn1.O=C(O)/C=C\\C(=O)O"
experimental_system = "U2OS"
readout_value = 38

[[record]]
compound = "COc1ccccc1CN[C@H]1C2CCN(CC2)[C@H]1C(c1ccccc1)c1ccccc1"
experimental_system = "U2OS"
readout_value = 14

[[record]]
compound = "CC(C)NC(=O)N1CC[C@H](NC2=Nc3cc(F)ccc3N(CC(F)F)c3ccc(Cl)cc32)C1"
experimental_system = "U2OS"
readout_value = 13

[[record]]
compound = "COc1cc2ncn(-c3cc(OCc4ccccc4C(F)(F)F)c(C(N)=O)s3)c2cc1OC [GW843682X]"
experimental_system = "U2OS"
readout_value = 6

[[record]]
compound = "Cl.O=C(O)c1cc(-c2ccc(C3CCNCC3)cc2)c2ccc(-c3ccc(C(F)(F)F)cc3)cc2c1"
experimental_system = "U2OS"
readout_value = 16

[[record]]
compound = "CC(C)Oc1ccccc1C(=O)Nc1ccccc1C(=O)Nc1cccc(S(=O)(=O)C(F)(F)F)c1"
experimental_system = "U2OS"
readout_value = 18

[[record]]
compound = "Cc1c[nH]c2nccc(Oc3c(F)cc(Nc4cc(Cl)nc(N)n4)cc3F)c12"
experimental_system = "U2OS"
readout_value = 18

[[record]]
compound = "Cc1cccc(CN2CCN(C(c3ccccc3)c3ccc(Cl)cc3)CC2)c1.Cl.Cl (stereo not given)"
experimental_system = "U2OS"
readout_value = 7

[[record]]
compound = "CCc1nn(CCCN2CCN(c3cccc(Cl)c3)CC2)c(=O)n1CCOc1ccccc1.Cl [NEFAZODONE HYDROCHLORIDE]"
experimental_system = "U2OS"
readout_value = 20

[[record]]
compound = "CCOC(=O)Nc1cc(-c2ccc(C)c(NS(C)(=O)=O)c2)nn2c(C)nnc12"
experimental_system = "U2OS"
readout_value = 3

[[record]]
compound = "CC1=C(C(=O)Nc2cc3cn[nH]c3cc2F)C(c2ccc(C(F)(F)F)cc2)CC(=O)N1 (stereo not given)"
experimental_system = "U2OS"
readout_value = 12

[[record]]
compound = "C[C@]12CC[C@@H]3c4ccc(O)cc4CC[C@H]3[C@@H]1CC[C@@H]2O"
experimental_system = "U2OS"
readout_value = 8

[[record]]
compound = "CC(C)c1noc(N2CCC(COc3ccc(-c4ccc(S(C)(=O)=O)cc4)nc3)CC2)n1"
experimental_system = "U2OS"
readout_value = 10

[[record]]
compound = "CC(C)OC(=O)N1CCC(Oc2ncnc3c2cnn3-c2ccc(S(C)(=O)=O)cc2F)CC1"
experimental_system = "U2OS"
readout_value = 7

[[record]]
compound = "C=CC(=O)Nc1cccc(Sc2nc(Nc3ccc(N4CCN(C)CC4)cc3)ncc2Cl)c1"
experimental_system = "U2OS"
readout_value = 91


Data origin: ChEMBL document CHEMBL4689842
